Listed here are binders together with their documented median log2 fold change.
Target: T1, USP38, Q8NB14
T1 chain: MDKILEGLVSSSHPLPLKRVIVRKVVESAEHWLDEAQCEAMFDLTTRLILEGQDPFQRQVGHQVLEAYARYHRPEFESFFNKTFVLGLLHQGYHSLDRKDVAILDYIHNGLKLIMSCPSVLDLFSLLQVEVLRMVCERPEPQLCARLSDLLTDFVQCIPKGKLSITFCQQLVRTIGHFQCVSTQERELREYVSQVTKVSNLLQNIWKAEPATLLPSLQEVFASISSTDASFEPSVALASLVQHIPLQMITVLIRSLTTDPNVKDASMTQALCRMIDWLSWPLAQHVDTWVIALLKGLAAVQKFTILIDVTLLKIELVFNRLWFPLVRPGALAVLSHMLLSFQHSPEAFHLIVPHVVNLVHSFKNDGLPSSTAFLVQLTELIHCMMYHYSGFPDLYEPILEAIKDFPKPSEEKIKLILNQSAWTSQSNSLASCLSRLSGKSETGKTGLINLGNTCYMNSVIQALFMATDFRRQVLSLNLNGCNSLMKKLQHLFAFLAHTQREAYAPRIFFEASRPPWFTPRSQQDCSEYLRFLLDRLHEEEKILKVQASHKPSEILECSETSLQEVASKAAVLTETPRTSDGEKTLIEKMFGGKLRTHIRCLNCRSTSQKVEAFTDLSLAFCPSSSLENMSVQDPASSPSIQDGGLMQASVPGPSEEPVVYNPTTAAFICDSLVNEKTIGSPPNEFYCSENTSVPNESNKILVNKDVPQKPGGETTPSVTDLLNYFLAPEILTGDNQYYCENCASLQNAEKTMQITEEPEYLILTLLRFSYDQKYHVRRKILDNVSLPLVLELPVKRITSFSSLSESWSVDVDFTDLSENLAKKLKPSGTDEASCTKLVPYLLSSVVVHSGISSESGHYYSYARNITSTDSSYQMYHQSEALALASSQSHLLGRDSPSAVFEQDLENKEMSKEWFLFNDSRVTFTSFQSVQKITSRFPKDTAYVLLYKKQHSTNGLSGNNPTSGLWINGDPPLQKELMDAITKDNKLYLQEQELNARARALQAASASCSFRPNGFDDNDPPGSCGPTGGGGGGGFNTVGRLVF
Test: median log2 fold change of GCK-ALFA target abundance (FLAG IP / Myc IP barcode read proportion) (log2 ratio); each designed protein is fused to an ALFA-tag nanobody in HEK293 cells to bring the named protein to FLAG-tagged glucokinase (GCK); Myc marks an untargeted standard; higher = target protein stabilised (more abundant)
Conditions: target protein: 3xFLAG-MCP-GCK-ALFA reporter; HEK293 landing pad (RPLP)

{"columns": ["BINDER", "median log2 fold change"],
 "data": [
  ["usp_38_diff_out_5_164_611 (protein) EVERIREEFEARADATLAALRALLAQARADPATARAALAQAEALVDDLADFYVEAVEEVNEADPSKVEEFLREASRRLEELSALVAELRALARAQAEAEA", -0.198]
]}

Consider the binder shown here: usp_38_diff_out_1_162_38 (protein) ELEELLKEAEEAIERARELLERAEEAFAAGDLETAERLLREAADELGRAAQLLREARRLLRELPPEEREKYRERLEELERELDELIDRYTALATEVFLAR What is its recorded median log2 fold change?
0.219

Ok, now usp_38_diff_out_16_37_207 (protein) GEEKLKEFKKFMEEAMKKAKKLAEEAKKLAKEGKDKKEIEKLQKELDKLLDEVNEKTTEVLEEVPEKADEILAEYDKAATTIAEAGATIRAELRKARAAE
0.0801

# iterate: usp_38_diff_out_15_42_146 (protein) SQLEEELRLIVEAMEAERDRVVADVATLPEAKLKRLARRNLEGAKGEAERTGDPVAAEIAALYEEGLANPATLKAKMQEAVRLTYDRAIAEVRRRMEEEA
-0.607

FYI, the data here is from the supplement of paper PMC12632987.
